Test system: DU-145
Assay: NCI tumour cell line growth inhibition, 48 h
Calls of active or inactive are those of the source. Cut-off read from the data, not from the text of the source: active = GI50 up to about 1.1 µM and inactive = higher.
Readout: GI50

Solved cases (8 shown):
CC(C)CCCC(C)[C@H]1CCC2[C@@H]3CCC4Cc5nc6c(nc5C[C@]4(C)C3CC[C@@]21C)CC1CC[C@@H]2C(C[C@@H](O)[C@@]3(C)C2C[C@@H]2OC4(CCC(C)CO4)C(C)[C@@H]23)[C@@]1(C)C6 (some centres undefined)    > 100 µM (inactive)
CCOP(=O)(O)C(Nc1ccc(/N=N/c2ccccc2)cc1)c1cccc(C(Nc2ccc(/N=N/c3ccccc3)cc2)P(=O)(O)OCC)c1 (centres undefined)    80.9 µM (inactive)
NC(=O)NNc1nc(-c2ccccc2)cs1    > 100 µM (inactive)
Cc1ccc2nc(C(C)C)c(=O)[nH]c2c1    > 100 µM (inactive)
COc1ccc(C2SC(=N)Nc3c2c(C)nn3C(=O)c2ccc(Cl)cc2)cc1OC (centres undefined)    > 10 µM (inactive)
CC(O)CC(O)(C(F)(F)F)C(F)(F)F (centres undefined)    > 10 µM (inactive)
COCO[C@@H]1C[C@H]2C(=O)Nc3ccccc3C(=O)N2C1    48.8 µM (inactive)
O=C(CNc1ccccc1[N+](=O)[O-])Nn1cnc2ccc(S(=O)(=O)Nc3ccccc3[N+](=O)[O-])cc2c1=O    > 100 µM (inactive)

--- query ---
stdin: Tell me its GI50 given O=C1N/C(=N/N=C/C(O)C(O)C(O)C(O)CO)N/C1=C\c1ccco1 (centres undefined) as the entry.
stdout: > 100 µM (inactive)
